Test system: NCI-H460
assay_info: NCI sulforhodamine B growth inhibition, lung cancer cells
Assay type: cell-based, human
condition_set: 48 h
Please go through the items and note down their Growth inhibition of human cancer cell lines GI50.
Give your result in µg/mL as a bare value.

Query string: Fill blank: measured Growth inhibition of human cancer cell lines GI50 of the compound CC(C)C[C@H]1OC(=O)[C@H](C(C)C)NC(=O)[C@H](C)OC(=O)[C@@H](C(C)C)NC(=O)[C@@H](CC2CCCCC2)OC(=O)[C@H]([C@@H](C)OC(=O)CCCN(C)C(=O)OCc2ccc(O[C@@H]3O[C@H](C(=O)O)[C@@H](O)[C@H](O)[C@H]3O)c([N+](=O)[O-])c2)NC(=O)[C@H](C)OC(=O)[C@@H](C(C)C)NC(=O)[C@@H](CC(C)C)OC(=O)[C@H](C(C)C)NC(=O)[C@H](C)OC(=O)[C@@H](C(C)C)NC1=O is ____.
Result string: 0.07

Query string: Moving on to CC(C)[C@@H]1NC(=O)[C@H](C)OC(=O)[C@@H](C(C)C)NC(=O)[C@@H](CC2CCCCC2)OC(=O)[C@H]([C@@H](C)O)NC(=O)[C@H](C)OC(=O)[C@@H](C(C)C)NC(=O)[C@@H](CC2CCCCC2)OC(=O)[C@H](C(C)C)NC(=O)[C@H](C)OC(=O)[C@@H](C(C)C)NC(=O)[C@@H](CC2CCCCC2)OC1=O [Silstatin 5 (15a)]
Result string: 0.021

Query string: Another compound: CC(C)C[C@H]1OC(=O)[C@H](C(C)C)NC(=O)[C@H](C)OC(=O)[C@@H](C(C)C)NC(=O)[C@@H](CC2CCCCC2)OC(=O)[C@H]([C@@H](C)O)NC(=O)[C@H](C)OC(=O)[C@@H](C(C)C)NC(=O)[C@@H](CC(C)C)OC(=O)[C@H](C(C)C)NC(=O)[C@H](C)OC(=O)[C@@H](C(C)C)NC1=O [Silstatin 7 (18a)]
Result string: 0.0032

Query string: Now this one: CC(C)C[C@H]1OC(=O)[C@H](C(C)C)NC(=O)[C@H](C)OC(=O)[C@@H](C(C)C)NC(=O)[C@@H](CC(C)C)OC(=O)[C@H](C(C)C)NC(=O)[C@H](C)OC(=O)[C@@H](C(C)C)NC(=O)[C@@H](CC2CCCCC2)OC(=O)[C@H](Cc2ccc(OC(C)(C)C)cc2)NC(=O)[C@H](C)OC(=O)[C@@H](C(C)C)NC1=O [Silstatin 17b]
Result string: 0.12

Query string: And CC(C)C[C@H]1OC(=O)[C@H](Cc2ccc(OC(C)(C)C)cc2)NC(=O)[C@H](C)OC(=O)[C@@H](C(C)C)NC(=O)[C@@H](CC(C)C)OC(=O)[C@H](C(C)C)NC(=O)[C@H](C)OC(=O)[C@@H](C(C)C)NC(=O)[C@@H](CC(C)C)OC(=O)[C@H](C(C)C)NC(=O)[C@H](C)OC(=O)[C@@H](C(C)C)NC1=O ?
Result string: 0.029

Query string: Then what about the compound CC(C)C[C@H]1OC(=O)[C@H](C(C)C)NC(=O)[C@H](C)OC(=O)[C@@H](C(C)C)NC(=O)[C@@H](CC(C)C)OC(=O)[C@H](C(C)C)NC(=O)[C@H](C)OC(=O)[C@@H](C(C)C)NC(=O)[C@@H](CC2CCCCC2)OC(=O)[C@H](Cc2ccc(O)cc2)NC(=O)[C@H](C)OC(=O)[C@@H](C(C)C)NC1=O [Silstatin 8 (18b)] ?
Result string: 0.004

Query string: Please answer likewise for CC(C)[C@@H]1NC(=O)[C@H](C)OC(=O)[C@@H](C(C)C)NC(=O)[C@@H](CC2CCCCC2)OC(=O)[C@H]([C@@H](C)OC(C)(C)C)NC(=O)[C@H](C)OC(=O)[C@@H](C(C)C)NC(=O)[C@@H](CC2CCCCC2)OC(=O)[C@H](C(C)C)NC(=O)[C@H](C)OC(=O)[C@@H](C(C)C)NC(=O)[C@@H](CC2CCCCC2)OC1=O [Silstatin 14b]
Result string: 0.32

Query string: Input CC(C)C[C@H]1OC(=O)[C@H](C(C)C)NC(=O)[C@H](C)OC(=O)[C@@H](C(C)C)NC(=O)[C@@H](CC(C)C)OC(=O)[C@H](C(C)C)NC(=O)[C@H](C)OC(=O)[C@@H](C(C)C)NC(=O)[C@@H](CC(C)C)OC(=O)[C@H](C(C)C)NC(=O)[C@H](C)OC(=O)[C@@H](C(C)C)NC1=O [Silstatin 1 (7a), Cyclo-[Val-D-Hica-D-Val-Lac]3]
Result string: 0.0007

Query string: And CC(C)C[C@H]1OC(=O)[C@H](C(C)C)NC(=O)[C@H](C)OC(=O)[C@@H](C(C)C)NC(=O)[C@@H](CC(C)C)OC(=O)[C@H]([C@@H](C)O)NC(=O)[C@H](C)OC(=O)[C@@H](C(C)C)NC(=O)[C@@H](CC(C)C)OC(=O)[C@H](C(C)C)NC(=O)[C@H](C)OC(=O)[C@@H](C(C)C)NC1=O ?
Result string: 0.0032

Query string: Ok, now CC(C)[C@@H]1NC(=O)[C@H](C)OC(=O)[C@@H](C(C)C)NC(=O)[C@@H](CC2CCCCC2)OC(=O)[C@H](C(C)C)NC(=O)[C@H](C)OC(=O)[C@@H](C(C)C)NC(=O)[C@@H](CC2CCCCC2)OC(=O)[C@H](C(C)C)NC(=O)[C@H](C)OC(=O)[C@@H](C(C)C)NC(=O)[C@@H](CC2CCCCC2)OC1=O [Silstatin 4 (14a), Cyclo-[Val-D-Hcha-D-Val-Lac]3]
Result string: 0.4

Query string: Then what about the compound CC(C)[C@@H]1NC(=O)[C@H](C)OC(=O)[C@@H](C(C)C)NC(=O)[C@@H](CC2CCCCC2)OC(=O)[C@H](C(C)C)NC(=O)[C@H](C)OC(=O)[C@@H](C(C)C)NC(=O)[C@@H](CC2CCCCC2)OC(=O)[C@H](Cc2ccc(O)cc2)NC(=O)[C@H](C)OC(=O)[C@@H](C(C)C)NC(=O)[C@@H](CC2CCCCC2)OC1=O [Silstatin 6 (15b)] ?
Result string: 0.32
